Test system: E. coli ATCC 25922
Experiment: MIC and MBC testing, broth microdilution
Type: cell-based, Escherichia coli
Conditions: Escherichia coli, ATCC25922, read-out: MBC
Procedure: The minimum inhibitory concentrations (MICs) and minimum bactericidal concentrations (MBCs) of the synthesized compounds effective against ESKAPE strains, S. aureus clinical isolates, and MRSA were investigated by the broth dilution method. […] The minimum inhibitory concentration (MIC) of all synthesized compounds was tested by the broth microdilution method. […] The MIC of the compounds was recorded as the lowest concentration at which no visible growth was observed. […]

# compound, limit qualifier, MBC / µg/mL
records = [
    ("C[C@H]1COc2c(N3CCN(C)CC3)c(F)cc3c(=O)c(C(=O)O)cn1c23 [Levofloxacin, reference compound]", "≤", 1),
    ("[H]/N=C(\\N)NN=C1CCCc2cc(OCc3ccc(Br)cc3)ccc21 [Compound 1S]", "=", 8),
    ("[H]/N=C(\\N)NN=C1CCCc2cc(OCCCCCCCC)ccc21 [Compound 2E]", "=", 16),
    ("[H]/N=C(\\N)NN=C1CCCc2cc(OCc3ccc(C(F)(F)F)cc3)ccc21 [Compound 1J]", "=", 4),
    ("[H]/N=C(\\N)NN=C1CCCc2cc(OCc3ccccc3Br)ccc21 [Compound 1Q]", "=", 4),
    ("[H]/N=C(\\N)NN=C1CCCc2cc(OCc3cc(F)ccc3F)ccc21 [Compound 1E]", "=", 8),
]

* * *

Test system: clinical S. aureus isolate LMY45
Assay: MIC and MBC testing, broth microdilution
Format: cell-based, Staphylococcus aureus
Conditions: Staphylococcus aureus; LMY45; read-out: MBC
Experimental: Furthermore, the MBC values of the compounds were detected. The minimum inhibitory concentration (MIC) of all synthesized compounds was tested by the broth microdilution method. In brief, compounds dissolved in DMSO were diluted twice continuously in a 96-well plate with MH broth. […]
property: MBC (µg/mL)

# smi, observed
records = [
    ("[H]/N=C(\\N)NN=C1CCCc2cc(OCCCC)ccc21", 4),
    ("[H]/N=C(\\N)NN=C1CCCc2cc(OCCCCCCCCCCC)ccc21", 8),
    ("[H]/N=C(\\N)NN=C1CCCc2cc(OCc3ccc(C(F)(F)F)cc3)ccc21", 2),
    ("[H]/N=C(\\N)NN=C1CCCc2cc(OCc3cccc(-c4ccccc4)c3)ccc21", 8),
    ("[H]/N=C(\\N)NN=C1CCCc2cc(OCc3ccccc3Br)ccc21", 4),
    ("[H]/N=C(\\N)NN=C1CCCc2cc(OCc3ccc(F)cc3)ccc21", 4),
]

* * *

test system: E. coli ATCC 25922; assay: MIC and MBC testing, broth microdilution; assay type: cell-based, Escherichia coli; details: Escherichia coli, ATCC25922, read-out: MBC

# smi, tested on, limit qualifier, MBC (µg/mL)
data = [
    ("[H]/N=C(\\N)NN=C1CCCc2cc(OCc3ccc(F)cc3Cl)ccc21", "E. coli ATCC 25922", ">", 32),
    ("[H]/N=C(\\N)NN=C1CCCc2cc(OCCCC)ccc21", "E. coli ATCC 25922", ">", 32),
    ("[H]/N=C(\\N)NN=C1CCCc2cc(OCCCCC)ccc21", "E. coli ATCC 25922", "=", 8),
    ("[H]/N=C(\\N)NN=C1CCCc2cc(OCc3c(F)cccc3F)ccc21", "E. coli ATCC 25922", "=", 16),
    ("[H]/N=C(\\N)NN=C1CCCc2cc(OCc3ccc(F)cc3)ccc21", "E. coli ATCC 25922", "=", 8),
    ("[H]/N=C(\\N)NN=C1CCCc2cc(OCc3cccc(F)c3)ccc21", "E. coli ATCC 25922", "=", 8),
    ("[H]/N=C(\\N)NN=C1CCCc2cc(OCCCCCCC)ccc21", "E. coli ATCC 25922", "=", 8),
    ("CC(C)=CCC/C(C)=C/COc1ccc2c(c1)CCC/C2=N\\NC(=N)N", "E. coli ATCC 25922", "=", 16),
    ("[H]/N=C(\\N)NN=C1CCCc2cc(OCc3cccc(Br)c3)ccc21", "E. coli ATCC 25922", "=", 8),
    ("[H]/N=C(\\N)NN=C1CCCc2cc(OCc3ccc(C#N)cc3)ccc21", "E. coli ATCC 25922", "=", 32),
]

* * *

Overview of recorded log10(MBC) for various molecules
Test system: E. faecium ATCC 35667
Assay: MIC and MBC testing, broth microdilution
Assay type: cell-based, Enterococcus faecium
Conditions: Enterococcus faecium, ATCC35667; E. faecium ATCC 35667; read-out: MBC
Procedure: The minimum inhibitory concentrations (MICs) and minimum bactericidal concentrations (MBCs) of the synthesized compounds effective against ESKAPE strains, S. aureus clinical isolates, and MRSA were investigated by the broth dilution method. […] The minimum inhibitory concentration (MIC) of all synthesized compounds was tested by the broth microdilution method. […] The MIC of the compounds was recorded as the lowest concentration at which no visible growth was observed. […]
property: log10(MBC) (log10 of the value in µg/mL)

# molecule, property, observed
rows = [
    ("[H]/N=C(\\N)NN=C1CCCc2cc(OCc3cccc(F)c3)ccc21", "log10(MBC)", 1.20),
    ("[H]/N=C(\\N)NN=C1CCCc2cc(OCCCC)ccc21", "log10(MBC)", 1.51),
    ("[H]/N=C(\\N)NN=C1CCCc2cc(OCc3cccc(-c4ccccc4)c3)ccc21", "log10(MBC)", 1.20),
    ("[H]/N=C(\\N)NN=C1CCCc2cc(OCCCCCC)ccc21", "log10(MBC)", 0.90),
    ("[H]/N=C(\\N)NN=C1CCCc2cc(OCc3cccc(Br)c3)ccc21", "log10(MBC)", 0.90),
    ("C[C@H]1COc2c(N3CCN(C)CC3)c(F)cc3c(=O)c(C(=O)O)cn1c23 [Levofloxacin, reference compound]", "log10(MBC)", 0.30),
    ("[H]/N=C(\\N)NN=C1CCCc2cc(OCc3cc(C(F)(F)F)cc(C(F)(F)F)c3)ccc21", "log10(MBC)", 1.20),
    ("[H]/N=C(\\N)NN=C1CCCc2cc(OCc3ccccc3Br)ccc21", "log10(MBC)", 0.90),
    ("[H]/N=C(\\N)NN=C1CCCc2cc(OCCCCCCCCCCC)ccc21", "log10(MBC)", 0.90),
    ("[H]/N=C(\\N)NN=C1CCCc2cc(OCc3cc(F)ccc3F)ccc21", "log10(MBC)", 1.20),
    ("[H]/N=C(\\N)NN=C1CCCc2cc(OCC=C(C)C)ccc21", "log10(MBC)", 1.51),
    ("CC(C)=CCC/C(C)=C/COc1ccc2c(c1)CCC/C2=N\\NC(=N)N", "log10(MBC)", 0.90),
    ("[H]/N=C(\\N)NN=C1CCCc2cc(OCCCCCCC)ccc21", "log10(MBC)", 0.60),
    ("[H]/N=C(\\N)NN=C1CCCc2cc(OCc3ccc(F)cc3)ccc21", "log10(MBC)", 1.20),
    ("[H]/N=C(\\N)NN=C1CCCc2cc(OCc3cc(F)cc(F)c3)ccc21", "log10(MBC)", 0.90),
    ("[H]/N=C(\\N)NN=C1CCCc2cc(OCc3ccc(F)cc3F)ccc21", "log10(MBC)", 1.20),
    ("[H]/N=C(\\N)NN=C1CCCc2cc(OCc3c(F)cccc3F)ccc21", "log10(MBC)", 1.20),
]
